Recorded A1 ECR (equipotent concentration ratio relative to NECA=1) for the following compounds
target: human adenosine A1 receptor (Homo sapiens); construct: expressed in transfected cells; host or cells: Chinese hamster ovary (CHO) cells containing CRE/SPAP/HYG reporter elements; assay: Reporter gene (CRE/SPAP) agonist assay in CHO cells, adenosine A1 receptor; format: cell-based; settings: CHO cells with human A1 receptor; inhibition of forskolin-stimulated SPAP production; potency relative to NECA=1
Please state the value as a number alone, without comment.

Q) Answer with reported A1 ECR (equipotent concentration ratio relative to NECA=1) of O[C@@H]1[C@H](O)[C@@H](COCC(F)(F)F)O[C@H]1n1cnc2c(Nc3ccc(F)cc3)ncnc21
A) 298

Q) Answer with reported A1 ECR (equipotent concentration ratio relative to NECA=1) of Nc1ncnc2c1ncn2[C@@H]1O[C@H](COC(F)(F)F)[C@@H](O)[C@H]1O
A) 80.7

Q) Answer with reported A1 ECR (equipotent concentration ratio relative to NECA=1) of O[C@@H]1[C@H](O)[C@@H](COCC(F)(F)F)O[C@H]1n1cnc2c(NC3CCCC3)ncnc21
A) 8.70

Q) Answer with reported A1 ECR (equipotent concentration ratio relative to NECA=1) of O[C@@H]1[C@H](O)[C@@H](COC(F)(F)F)O[C@H]1n1cnc2c(NCCc3ccncc3)ncnc21
A) 185.5

Q) Answer with reported A1 ECR (equipotent concentration ratio relative to NECA=1) of CCOC(=O)N1CCC(Nc2ncnc3c2ncn3[C@@H]2O[C@H](COC(F)(F)F)[C@@H](O)[C@H]2O)CC1
A) 5.32

Q) Answer with reported A1 ECR (equipotent concentration ratio relative to NECA=1) of OCC(O)CNc1ncnc2c1ncn2[C@@H]1O[C@H](COC(F)(F)F)[C@@H](O)[C@H]1O (relative stereo)
A) 24.10

Q) Answer with reported A1 ECR (equipotent concentration ratio relative to NECA=1) of O[C@@H]1[C@H](O)[C@@H](COC(F)(F)F)O[C@H]1n1cnc2c(Nc3ccc(F)c(F)c3)ncnc21
A) 20.50

Q) Answer with reported A1 ECR (equipotent concentration ratio relative to NECA=1) of O=S1(=O)CCC(Nc2ncnc3c2ncn3[C@@H]2O[C@H](COC(F)(F)F)[C@@H](O)[C@H]2O)CC1
A) 79.50

Please find the next compound below.
Q) Answer with reported A1 ECR (equipotent concentration ratio relative to NECA=1) of O[C@@H]1[C@H](O)[C@@H](COCC(F)(F)F)O[C@H]1n1cnc2c(N[C@@H]3CCC[C@H]3O)ncnc21
A) 239.40

---

Recorded A3 ECR (equipotent concentration ratio relative to NECA=1) for the following compounds
Biological target: UniProtKB P0DMS8
Sequence (P0DMS8 1-318): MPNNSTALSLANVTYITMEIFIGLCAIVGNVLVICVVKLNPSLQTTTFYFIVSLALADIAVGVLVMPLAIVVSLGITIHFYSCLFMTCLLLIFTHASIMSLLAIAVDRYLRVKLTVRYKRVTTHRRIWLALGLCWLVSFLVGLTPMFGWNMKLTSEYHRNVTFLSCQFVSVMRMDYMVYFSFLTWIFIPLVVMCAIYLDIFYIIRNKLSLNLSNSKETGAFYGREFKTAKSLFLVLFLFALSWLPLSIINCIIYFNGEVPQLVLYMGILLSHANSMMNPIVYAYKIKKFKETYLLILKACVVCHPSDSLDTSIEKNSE
Assay: Reporter gene (CRE/SPAP) agonist assay in CHO cells, adenosine A3 receptor
Details: CHO cells with human A3 receptor; inhibition of forskolin-stimulated SPAP production; potency relative to NECA=1

Q) Answer with reported A3 ECR (equipotent concentration ratio relative to NECA=1) of O=S1(=O)CCC(Nc2ncnc3c2ncn3[C@@H]2O[C@H](COC(F)(F)F)[C@@H](O)[C@H]2O)CC1
A) >207

Q) Answer with reported A3 ECR (equipotent concentration ratio relative to NECA=1) of CC(=O)NCCNc1ncnc2c1ncn2[C@@H]1O[C@H](COC(F)(F)F)[C@@H](O)[C@H]1O
A) >175

Q) Answer with reported A3 ECR (equipotent concentration ratio relative to NECA=1) of Nc1ncnc2c1ncn2[C@@H]1O[C@H](COC(F)(F)F)[C@@H](O)[C@H]1O
A) 81.6

Q) Answer with reported A3 ECR (equipotent concentration ratio relative to NECA=1) of O[C@@H]1[C@H](O)[C@@H](COC(F)(F)F)O[C@H]1n1cnc2c(N[C@@H]3CCOC3)ncnc21
A) >175

Q) Answer with reported A3 ECR (equipotent concentration ratio relative to NECA=1) of O[C@@H]1[C@H](O)[C@@H](COC(F)(F)F)O[C@H]1n1cnc2c(NC3CCSCC3)ncnc21
A) >276

Q) Answer with reported A3 ECR (equipotent concentration ratio relative to NECA=1) of O[C@@H]1[C@H](O)[C@@H](COC(F)(F)F)O[C@H]1n1cnc2c(NC3CCOCC3)ncnc21
A) >129

Please find the next compound below.
Q) Answer with reported A3 ECR (equipotent concentration ratio relative to NECA=1) of CCOC(=O)N1CCC(Nc2ncnc3c2ncn3[C@@H]2O[C@H](COC(F)(F)F)[C@@H](O)[C@H]2O)CC1
A) >202

---

target: human adenosine A3 receptor (Homo sapiens); assay: Reporter gene (CRE/SPAP) agonist assay in CHO cells, adenosine A3 receptor; details: CHO cells with human A3 receptor; inhibition of forskolin-stimulated SPAP production; potency relative to NECA=1
measured metric: A3 ECR (equipotent concentration ratio relative to NECA=1)
Please state the value as a number alone, without comment.

// known answers, use as guide
Q) Answer with reported A3 ECR (equipotent concentration ratio relative to NECA=1) of O[C@@H]1[C@H](O)[C@@H](COCC(F)(F)F)O[C@H]1n1cnc2c(Nc3ccc(F)cc3)ncnc21
A) 19.7

Q) Answer with reported A3 ECR (equipotent concentration ratio relative to NECA=1) of OCC(O)CNc1ncnc2c1ncn2[C@@H]1O[C@H](COC(F)(F)F)[C@@H](O)[C@H]1O (relative stereo)
A) 284.5

Q) Answer with reported A3 ECR (equipotent concentration ratio relative to NECA=1) of O[C@@H]1[C@H](O)[C@@H](COC(F)(F)F)O[C@H]1n1cnc2c(Nc3ccc(F)c(F)c3)ncnc21
A) 197.3

Q) Answer with reported A3 ECR (equipotent concentration ratio relative to NECA=1) of O[C@@H]1[C@H](O)[C@@H](COC(F)(F)F)O[C@H]1n1cnc2c(NC3CC4CCC3C4)ncnc21 (some centres unmarked)
A) 143.5

***
Q) Answer with reported A3 ECR (equipotent concentration ratio relative to NECA=1) of O[C@@H]1[C@H](O)[C@@H](COCC(F)(F)F)O[C@H]1n1cnc2c(NC3CCCC3)ncnc21
A) 7.7

---

biological target: human adenosine A1 receptor (Homo sapiens); construct: expressed in transfected cells; host or cells: Chinese hamster ovary (CHO) cells containing CRE/SPAP/HYG reporter elements; assay: Reporter gene (CRE/SPAP) agonist assay in CHO cells, adenosine A1 receptor; assay type: cell-based; details: CHO cells with human A1 receptor; inhibition of forskolin-stimulated SPAP production; potency relative to NECA=1
measured metric: A1 ECR (equipotent concentration ratio relative to NECA=1)
Please state the value as a number alone, without comment.

Q) Answer with reported A1 ECR (equipotent concentration ratio relative to NECA=1) of CNS(=O)(=O)CCNc1ncnc2c1ncn2[C@@H]1O[C@H](COC(F)(F)F)[C@@H](O)[C@H]1O
A) 33.2

---

Target: human adenosine A1 receptor (Homo sapiens)
Construct: expressed in transfected cells; host or cells: Chinese hamster ovary (CHO) cells containing CRE/SPAP/HYG reporter elements
Sequence (P30542 1-326): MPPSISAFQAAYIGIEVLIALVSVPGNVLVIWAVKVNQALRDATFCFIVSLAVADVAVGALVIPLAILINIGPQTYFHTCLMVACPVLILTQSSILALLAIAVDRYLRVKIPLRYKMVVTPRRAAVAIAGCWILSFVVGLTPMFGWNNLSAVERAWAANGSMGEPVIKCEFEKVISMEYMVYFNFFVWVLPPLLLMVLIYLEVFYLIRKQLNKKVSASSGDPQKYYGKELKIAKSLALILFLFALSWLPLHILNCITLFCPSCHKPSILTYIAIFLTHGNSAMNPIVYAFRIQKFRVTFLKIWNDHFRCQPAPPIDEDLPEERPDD
Test: Reporter gene (CRE/SPAP) agonist assay in CHO cells, adenosine A1 receptor
Assay type: cell-based
Conditions: CHO cells with human A1 receptor; inhibition of forskolin-stimulated SPAP production; potency relative to NECA=1
Recorded A1 ECR (equipotent concentration ratio relative to NECA=1) for the following compounds
Please state the value as a number alone, without comment.

// known answers, use as guide
Q) Answer with reported A1 ECR (equipotent concentration ratio relative to NECA=1) of O[C@@H]1[C@H](O)[C@@H](COC(F)(F)F)O[C@H]1n1cnc2c(NC3CCSCC3)ncnc21
A) 11.1

Q) Answer with reported A1 ECR (equipotent concentration ratio relative to NECA=1) of O[C@@H]1[C@H](O)[C@@H](COC(F)(F)F)O[C@H]1n1cnc2c(NC3CCOCC3)ncnc21
A) 8.40

***
Q) Answer with reported A1 ECR (equipotent concentration ratio relative to NECA=1) of Cc1nc(NC2CCOCC2)c2ncn([C@@H]3O[C@H](COC(F)(F)F)[C@@H](O)[C@H]3O)c2n1
A) 32
